Values were extracted from the Kinase Knowledgebase extract (Sharma et al. 2016).

Target: MAPK14 (human) (UniProt Q16539)
Sequence (Q16539 whole entry, looked up): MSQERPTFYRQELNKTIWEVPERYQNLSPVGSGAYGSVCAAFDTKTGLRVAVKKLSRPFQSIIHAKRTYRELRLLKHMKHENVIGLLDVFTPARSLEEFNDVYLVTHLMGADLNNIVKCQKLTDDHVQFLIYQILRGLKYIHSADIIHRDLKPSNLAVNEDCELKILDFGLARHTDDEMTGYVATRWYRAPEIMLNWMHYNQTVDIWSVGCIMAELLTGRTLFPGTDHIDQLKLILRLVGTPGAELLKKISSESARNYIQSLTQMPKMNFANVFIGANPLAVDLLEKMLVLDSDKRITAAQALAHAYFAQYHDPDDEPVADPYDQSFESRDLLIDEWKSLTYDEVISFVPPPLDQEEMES
Test: Inhibition of LPS Stimulated TNF Production by U937 Cells
Conditions: concentration not given here
quantity-name: inhibition (%)

{"columns": ["smi", "study-system", "unit-abbreviation", "inhibition"],
 "data": [
  ["CN(C(=O)NCc1[nH]nc(-c2ccc(F)cc2)c1-c1ccncc1)c1ccccc1", "MAPK14 (human) (UniProt Q16539)", "%", 18],
  ["O=C(NCc1[nH]nc(-c2ccc(F)cc2)c1-c1ccncc1)Nc1cc(Cl)cc(Cl)c1", "MAPK14 (human) (UniProt Q16539)", "%", 20]
]}

I = C[C@H](NS(=O)(=O)c1cccc2ccccc12)c1[nH]nc(-c2ccc(F)cc2)c1-c1ccncc1
II = Cc1c(C)c(S(=O)(=O)NCc2[nH]nc(-c3ccc(F)cc3)c2-c2ccncc2)c(C)c2c1OC(C)(C)CC2
III = CC(=O)Oc1cccc(C(=O)NCc2[nH]nc(-c3ccc(F)cc3)c2-c2ccncc2)c1
[Q] List items by inhibition in falling order. Please list the labels in the order you were asked to rank them.
[A] I, III, II

P = COc1ccc(CC(=O)N[C@@H](C)c2[nH]nc(-c3ccc(F)cc3)c2-c2ccncc2)cc1OC
Q = CNC(=O)N[C@@H](C)c1[nH]nc(-c2ccc(F)cc2)c1-c1ccncc1
[Q] Just tell me: smaller inhibition value, P or Q ? Reply briefly: the label of your chosen item.
[A] P
(P: 28%, Q: 79%)
